Test system: Rhodococcus ruber SC1
ASSAY NAME: Growth of Rhodococcus ruber SC1 on cyclic ketones as sole carbon and energy source
Type: cell-based
STUDY CONDITIONS: cyclic ketone as sole carbon and energy source
READOUT KIND: Growth of Rhodococcus ruber SC1

Worked set:
# COMPOUND, Growth of Rhodococcus ruber SC1
records = [
    ("O=C1CCCCCCCCCCCC1 [C13, cyclotridecanone]", "grows well"),
    ("O=C1CCCCC1 [C6, cyclohexanone]", "does not grow"),
    ("O=C1CCCCCC1 [C7, cycloheptanone]", "does not grow"),
    ("O=C1CCCCCCCCCCCCCC1 [C15, cyclopentadecanone]", "grows well"),
    ("O=C1CCCCCCC1 [C8, cyclooctanone]", "does not grow"),
    ("O=C1CCCCCCCCCCC1 [C12, cyclododecanone]", "grows well"),
]

Please examine the following record next.
Value of measured Growth of Rhodococcus ruber SC1 for the entry O=C1CCCCCCCCCC1 [C11, cycloundecanone] : grows well

All figures here come from patent US20030215930A1.
